Target: GCase (Cerezyme) (Homo sapiens, UniProt P04062, R534H)
Experiment: Thermal stability assay for GCase
Type: binding
Settings: pH 5.2, inhibitor 2 mM
QUANTITY_KIND: Tm (°C)
The reply should be a number in °C, with the unit left off.

compound="OC[C@H]1CNC[C@@H](O)[C@@H]1O [IFG, isofagomine, reference compound]" recorded_number=69.7

Reported Tm of Cl.OCCN1C[C@H](O)[C@@H](O)[C@H](O)[C@@H](O)C1 : 56.7

Reported Tm of Cl.OCCOCCN1C[C@H](O)[C@@H](O)[C@H](O)[C@@H](O)C1 : 56.7

Reported Tm of Cl.O[C@H]1[C@H](O)[C@@H](O)CNC[C@@H]1O : 57.3

###

Each entry below lists one item and its recorded ΔTm at 2000 µM value.
Molecular target: GCase (Cerezyme) (Homo sapiens, UniProt P04062, R534H)
Sequence (P04062 40-536 R534H): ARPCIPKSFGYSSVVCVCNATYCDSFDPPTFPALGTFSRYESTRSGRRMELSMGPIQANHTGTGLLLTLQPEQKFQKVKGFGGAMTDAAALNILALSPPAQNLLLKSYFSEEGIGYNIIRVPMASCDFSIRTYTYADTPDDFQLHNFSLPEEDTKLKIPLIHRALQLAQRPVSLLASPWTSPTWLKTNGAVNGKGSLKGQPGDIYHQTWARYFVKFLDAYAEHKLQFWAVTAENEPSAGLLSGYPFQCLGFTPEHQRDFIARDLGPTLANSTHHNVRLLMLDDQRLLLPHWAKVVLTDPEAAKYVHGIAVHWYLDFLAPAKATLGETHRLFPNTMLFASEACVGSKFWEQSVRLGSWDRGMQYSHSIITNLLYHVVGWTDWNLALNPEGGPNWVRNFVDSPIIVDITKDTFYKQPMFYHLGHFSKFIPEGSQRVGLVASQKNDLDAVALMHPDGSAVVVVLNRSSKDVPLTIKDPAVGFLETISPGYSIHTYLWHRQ
Assay: Thermal stability assay for GCase
Format: binding
Conditions: pH 5.2, read-out: ΔTm
The reply should be a number in °C, with the unit left off.

Reported ΔTm at 2000 µM of OC[C@H]1CNC[C@@H](O)[C@@H]1O [IFG, isofagomine, reference compound] : 13.8

Reported ΔTm at 2000 µM of Cl.OCCN1C[C@H](O)[C@@H](O)[C@H](O)[C@@H](O)C1 : 1

Reported ΔTm at 2000 µM of Cl.O[C@H]1[C@H](O)[C@@H](O)CNC[C@@H]1O : 1.5

Reported ΔTm at 2000 µM of Cl.OCCOCCN1C[C@H](O)[C@@H](O)[C@H](O)[C@@H](O)C1 : 0.8
